# System: HCT-116 colon
# assay.name: NCI-60 one-dose screen, 48 h
# condition.info: 10 µM
This is part of a sample that, as a whole, favours compounds with a hit. Of some 83,000 tested, about 20% had one in any assay. Calls of active or inactive are those of the source. The calls were made as follows: active = growth percent below 10; inactive = the rest.
Labels: active, inactive

>>> group("O=C(NC([Se])=NC1CCCCC1)c1ccc2c(c1)OCO2")
"inactive"
>>> group("O=C(/C=C/c1ccccc1)c1nc2ccccc2n1Cc1ccc(Br)cc1")
"active"
>>> group("COc1cc(OC)c(S(=O)(=O)N(CCCl)CCCl)cc1C(=O)/C=C/c1ccc(C)cc1")
"inactive"
>>> group("COC(=O)CCn1c(-c2ccc(-n3cc(-c4ccc(O[C@H]5O[C@@H]6OC7(C)CC[C@H]8[C@H](C)CC[C@@H]([C@H]5C)[C@@]68OO7)cc4)nn3)cc2)nc2ccccc21")
"inactive"
>>> group("C[C@H]1[C@@H](Oc2ccc(-c3cn(-c4ccnc5cc(Cl)ccc45)nn3)cc2)O[C@@H]2OC3(C)CC[C@H]4[C@H](C)CC[C@@H]1[C@@]24OO3")
"inactive"
>>> group("CC1=C(COCCOC(=O)c2ccc(S(=O)(=O)F)cc2)C2=C(C)C3(CC3)[C@@](C)(O)C(=O)C2=C1")
"active"
>>> group("C#CCCCN(CCNc1ccnc2cc(Cl)ccc12)C(=O)CCC(=O)O[C@@H]1O[C@@H]2OC3(C)CC[C@H]4[C@H](C)CC[C@@H]([C@H]1C)[C@@]24OO3")
"inactive"
